Tested on: Plasmodium berghei
ASSAY_SUMMARY: Antiplasmodial activity against Plasmodium berghei infected in NMRI mouse assessed as parasite-free mouse at 30 mg/kg, po administered at 4, 24, 48, 72 hrs post infection measured on day 30 by Peter's test
Format: functional, organism-based
Activity calls are given as the source filed them. The rule behind the calls is not given here.
MEASUREMENT_TYPE: Activity

INSERT INTO assay_data (compound, measurement_type, observed_value) VALUES
  ('N/C(CC(O)c1cc2c(F)cc(F)cc2c2cc(C(F)(F)F)ccc12)=N\N=C\c1ccc(F)cc1 (stereo not given)', 'Activity', 'inactive'),
  ('C[C@H]1[C@H](OC(=O)CCC(=O)O)O[C@@H]2O[C@@]3(C)CC[C@H]4[C@H](C)CC[C@@H]1[C@@]24OO3 [ARTESUNATE]', 'Activity', 'inactive'),
  ('CCN(CC)Cc1cc(/C=N/N=C(\N)CC(O)c2cc3c(F)cc(F)cc3c3cc(C(F)(F)F)ccc23)ccc1O (stereo not given)', 'Activity', 'inactive'),
  ('CCN(CC)CCCC(C)Nc1ccnc2cc(Cl)ccc12 (stereo not given)', 'Activity', 'inactive');

Lab note: measured Activity of N/C(CC(O)c1cc2c(Cl)cc(Cl)cc2c2cc(C(F)(F)F)ccc12)=N\N=C\c1ccc(F)cc1 (stereo not given) was inactive
